Tested target: Muscarinic acetylcholine receptor M2 (Rattus norvegicus, UniProt P10980)
Sequence (P10980 whole entry): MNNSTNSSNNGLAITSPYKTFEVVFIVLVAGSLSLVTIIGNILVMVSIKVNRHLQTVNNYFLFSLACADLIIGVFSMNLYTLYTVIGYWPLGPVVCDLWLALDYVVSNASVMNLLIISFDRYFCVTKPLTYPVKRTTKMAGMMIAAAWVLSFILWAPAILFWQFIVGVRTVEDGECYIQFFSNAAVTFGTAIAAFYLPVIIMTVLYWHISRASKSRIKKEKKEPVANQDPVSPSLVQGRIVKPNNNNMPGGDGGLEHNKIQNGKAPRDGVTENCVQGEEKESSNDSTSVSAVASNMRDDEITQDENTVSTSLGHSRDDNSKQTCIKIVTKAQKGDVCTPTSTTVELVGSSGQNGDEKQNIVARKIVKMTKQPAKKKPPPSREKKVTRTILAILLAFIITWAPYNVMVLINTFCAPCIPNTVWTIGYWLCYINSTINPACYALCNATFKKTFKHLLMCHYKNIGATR
Assay info: Displacement of [3H]N-methylscopolamine from muscarinic M2 receptor in rat heart
pKi: −log10 of the molar value.
// No strictly below 6 in pKi; Yes otherwise

Answered examples (3):
>>> classification("NC(=O)C(c1ccccc1)(c1ccccc1)[C@@H]1CCN(CCc2ccc3c(c2)CCO3)C1 [DARIFENACIN]")
"Yes"
>>> classification("O=C(N[C@H]1[C@@H]2CN(Cc3cccs3)C[C@@H]21)C(O)(c1ccccc1)C1CCCC1 (stereo partly specified)")
"No"
>>> classification("O=C(N[C@H]1[C@@H]2CN(CCc3ccc(Cl)cc3)C[C@@H]21)C(O)(c1ccccc1)C1CCCC1 (stereo partly specified)")
"Yes"

Entry O=C(N[C@H]1[C@@H]2CN(CCc3ccccc3)C[C@@H]21)C(O)(c1ccccc1)C1CCCC1 (stereo partly specified) : is its pKi no less than 6?
Yes

Entry O=C(N[C@H]1[C@@H]2CN(Cc3ccccc3)C[C@@H]21)C(O)c1ccccc1 (stereo partly specified) : is its pKi no less than 6?
No

Entry `O=C(N[C@H]1[C@@H]2CN(CCc3ccc4c(c3)OCO4)C[C@@H]21)[C@](O)(c1ccccc1)C1CCCC1` : is its pKi no less than 6?
Yes

Entry O=C(N[C@H]1[C@@H]2CN(CCCc3ccccc3)C[C@@H]21)C(O)(c1ccccc1)C1CCCC1 (stereo partly specified) : is its pKi no less than 6?
No

Entry CC(c1ccccc1)N1C[C@@H]2[C@H](C1)[C@H]2NC(=O)C(O)(c1ccccc1)C1CCCCC1 (stereo partly specified) : is its pKi no less than 6?
Yes

Entry CC(c1ccccc1)N1C[C@@H]2[C@H](C1)[C@H]2NC(=O)C(O)(c1ccccc1)C1CCCC1 (stereo partly specified) : is its pKi no less than 6?
Yes

Entry O=C(N[C@H]1[C@@H]2CN(Cc3ccccc3)C[C@@H]21)C(O)(c1ccccc1)C1CCCCCC1 (stereo partly specified) : is its pKi no less than 6?
Yes

Entry O=C(N[C@H]1[C@@H]2CN(CCc3ccc4c(c3)OCO4)C[C@@H]21)C(O)(c1ccccc1)C1CCCC1 (stereo partly specified) : is its pKi no less than 6?
Yes

----------
Reported pKi values are given for each entry in this list.
Tested target: Muscarinic acetylcholine receptor M3 (Rattus norvegicus)
Sequence (P08483 whole entry): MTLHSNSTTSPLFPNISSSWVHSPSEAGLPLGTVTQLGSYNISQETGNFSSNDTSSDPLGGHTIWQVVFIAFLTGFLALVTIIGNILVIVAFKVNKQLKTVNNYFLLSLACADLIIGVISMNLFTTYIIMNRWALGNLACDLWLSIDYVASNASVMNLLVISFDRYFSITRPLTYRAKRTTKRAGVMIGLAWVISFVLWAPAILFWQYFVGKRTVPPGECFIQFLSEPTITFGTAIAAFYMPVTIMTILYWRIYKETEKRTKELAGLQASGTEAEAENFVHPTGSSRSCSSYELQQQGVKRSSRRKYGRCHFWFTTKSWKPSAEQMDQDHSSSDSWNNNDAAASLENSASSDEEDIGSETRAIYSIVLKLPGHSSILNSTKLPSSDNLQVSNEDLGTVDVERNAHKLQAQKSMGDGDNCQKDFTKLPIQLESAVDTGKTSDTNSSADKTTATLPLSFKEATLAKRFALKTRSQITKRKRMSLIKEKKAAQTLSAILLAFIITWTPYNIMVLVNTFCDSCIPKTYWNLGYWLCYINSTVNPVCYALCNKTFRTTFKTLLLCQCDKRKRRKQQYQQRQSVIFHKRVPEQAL
Reminder that pKi is minus the log10 of a molar concentration.

>>> observed_measurement("O=C(N[C@H]1[C@@H]2CN(CCc3ccc4c(c3)OCO4)C[C@@H]21)[C@](O)(c1ccccc1)C1CCCC1")
7.91
>>> observed_measurement("CC(c1ccccc1)N1C[C@@H]2[C@H](C1)[C@H]2NC(=O)C(O)(c1ccccc1)C1CCCCC1 (some centres undefined)")
8.23
>>> observed_measurement("O=C(N[C@H]1[C@@H]2CN(CCCc3ccccc3)C[C@@H]21)C(O)(c1ccccc1)C1CCCC1 (some centres undefined)")
6.11

Proceed to the following item.
So the reported pKi for CC(c1ccccc1)N1C[C@@H]2[C@H](C1)[C@H]2NC(=O)C(O)(c1ccccc1)C1CCCC1 (some centres undefined) , on Muscarinic acetylcholine receptor M3 (Rattus norvegicus), turned out to be 7.60

----------
Reported pKi values are given for each entry in this list.
Tested target: Muscarinic acetylcholine receptor M2 (Rattus norvegicus, UniProt P10980)
Reminder that pKi is minus the log10 of a molar concentration.

>>> observed_measurement("CC(C)=CCCN1C[C@@H]2[C@H](C1)[C@H]2NC(=O)[C@@](O)(c1ccccc1)C1CCCC1")
5.94
>>> observed_measurement("COC(=O)c1ccc(CCN2C[C@@H]3[C@H](C2)[C@H]3NC(=O)C(O)(c2ccccc2)C2CCCC2)cc1 (some centres undefined)")
6.27

get_value(item= CC(c1ccccc1)N1C[C@@H]2[C@H](C1)[C@H]2NC(=O)C(O)(c1ccccc1)C1CCCCCC1 (some centres undefined) , readout=pKi) returns 7.41

get_value(item= CC(C)=CCCN1C[C@@H]2[C@H](C1)[C@H]2NC(=O)C(O)(c1ccccc1)C1CCCC1 (some centres undefined) , readout=pKi) returns 5.86
